assay: Oral bioavailability in mouse; assay type: ADME, organism-based; conditions: in vivo
Measured Endpoint: bioavailability (%)

> print(dat)
                                   molecule  measured.endpoint  measured.value
1  O=C1NCC(c2ccc(F)cc2)C12CCN(C1(c3ccc(F)cc3)CCCCC1)CC2 (stereo in doubt)    bioavailability              60

----------
// reported pKa per item
experiment: Dissociation constant, pKa of the compound; assay type: physicochemical
Measured Endpoint: pKa

> print(dat)
                                   molecule  measured.endpoint  measured.value
1  O=C1NCC(c2ccccc2)C12CCN(C1(c3ccccc3)CCOCC1)CC2 (stereo not drawn)                pKa            7.71
2  O=C1NCC(c2ccccc2)C12CCN(C1(c3ccccc3)CCCOC1)CC2 (stereo not drawn)                pKa             7.1
3  O=C1NCC(c2ccc(F)cc2)C12CCN(C1(c3ccc(F)cc3)CCCCC1)CC2 (stereo in doubt)                pKa            8.75

----------
assay: Half life in mouse; type: ADME, organism-based; conditions: in vivo
Measured Endpoint: half-life (h)

> print(dat)
                                   compound  units  measured.value
1  O=C1NCC(c2ccc(F)cc2)C12CCN(C1(c3ccc(F)cc3)CCCCC1)CC2 (stereo in doubt)      h             2.8

----------
experiment: in vitro; settings: mouse, microsomes, CL
Description: Intrinsic clearance in mouse microsome
Measured Endpoint: microsomal CLint (µL/min/mg)

> print(dat)
                                   molecule  measured.value
1  Cl.O=C1NCC(c2ccc(F)cc2)C12CCN(C1(c3cccs3)CCCCC1)CC2 (racemic)              80
2  O=C1NCN(c2ccccc2)C12CCN(C1(c3ccccc3)CCCCC1)CC2             470
3  Cl.O=C1NCC(c2ccc(F)cc2)C12CCN(C1(c3ccsc3)CCCCC1)CC2 (racemic)              39
4  CCCC1CNC(=O)C12CCN(C1(c3ccc(F)cc3)CCCCC1)CC2 (racemic)              24

----------
Below, each of the molecules is paired with its reported EC50 value.
target: Sodium- and chloride-dependent glycine transporter 1 (Homo sapiens); assay: Inhibition of [3H]glycine uptake at GlyT1
Sequence (P48067 whole entry): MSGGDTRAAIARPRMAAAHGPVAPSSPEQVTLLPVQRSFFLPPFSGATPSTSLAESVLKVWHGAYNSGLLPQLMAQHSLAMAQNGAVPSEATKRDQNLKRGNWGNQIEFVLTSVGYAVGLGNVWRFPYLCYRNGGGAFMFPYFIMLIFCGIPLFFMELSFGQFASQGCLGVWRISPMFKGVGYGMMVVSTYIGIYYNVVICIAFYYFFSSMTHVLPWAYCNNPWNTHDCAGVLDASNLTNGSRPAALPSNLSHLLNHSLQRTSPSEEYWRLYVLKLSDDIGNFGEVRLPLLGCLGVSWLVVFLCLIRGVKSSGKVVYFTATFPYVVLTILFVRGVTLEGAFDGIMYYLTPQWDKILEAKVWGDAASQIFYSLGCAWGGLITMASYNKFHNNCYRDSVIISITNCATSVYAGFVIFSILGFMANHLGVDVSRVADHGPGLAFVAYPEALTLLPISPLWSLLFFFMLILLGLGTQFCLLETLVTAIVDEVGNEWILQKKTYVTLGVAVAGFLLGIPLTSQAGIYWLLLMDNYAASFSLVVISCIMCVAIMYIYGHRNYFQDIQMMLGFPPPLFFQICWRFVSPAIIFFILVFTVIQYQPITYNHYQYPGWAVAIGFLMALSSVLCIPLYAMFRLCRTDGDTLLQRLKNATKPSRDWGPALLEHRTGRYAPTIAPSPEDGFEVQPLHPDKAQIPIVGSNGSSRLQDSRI
Measured Endpoint: EC50 (nM)

> print(dat)
                                    molecule                               system.name  measured.endpoint  operator.symbol  measured.value
 1  O=C1NCC(c2ccccc2)C12CCN(C1(c3ccccc3)CCOCC1)CC2 (single isomer, unassigned; diastereomer 4)  Sodium- and chloride-dependent glycine transporter 1 (Homo sapiens)               EC50                =             525
 2  CCC1(N2CCC3(CC2)C(=O)NCC3c2ccc(F)cc2)CCCCC1 (racemic)  Sodium- and chloride-dependent glycine transporter 1 (Homo sapiens)               EC50                =            1470
 3  O=C1NCC(c2ccccc2)C12CCN(C1(c3ccccc3)CCOCC1)CC2 (stereo in doubt; form 1)  Sodium- and chloride-dependent glycine transporter 1 (Homo sapiens)               EC50                =            7290
 4  Cc1cccc(C2(N3CCC4(CC3)C(=O)NCC4c3ccc(F)cc3)CCCCC2)c1 (single isomer, unassigned; diastereomer 1)  Sodium- and chloride-dependent glycine transporter 1 (Homo sapiens)               EC50                =            4000
 5  O=C1NCC(c2ccccc2)C12CCN(C1(c3ccccc3)CCCOC1)CC2 (stereo unspecified)  Sodium- and chloride-dependent glycine transporter 1 (Homo sapiens)               EC50                =            1420
 6  O=C1NCC(c2ccc(F)cc2)C12CCN(C1(c3cccc(F)c3)CCCCC1)CC2 (racemic)  Sodium- and chloride-dependent glycine transporter 1 (Homo sapiens)               EC50                =             393
 7  O=C1NCC(c2ccccc2)C12CCN(C1(c3ccccc3)CCOCC1)CC2 (single isomer, unassigned; diastereomer 1)  Sodium- and chloride-dependent glycine transporter 1 (Homo sapiens)               EC50                =            3660
 8  Cc1ccccc1C1(N2CCC3(CC2)C(=O)NCC3c2ccc(F)cc2)CCCCC1 (racemic)  Sodium- and chloride-dependent glycine transporter 1 (Homo sapiens)               EC50                =             350
 9  O=C1NCC(c2ccccc2)C12CCN(C1(c3ccc(C(F)(F)F)cc3)CCCCC1)CC2 (single isomer, unassigned; diastereomer 2)  Sodium- and chloride-dependent glycine transporter 1 (Homo sapiens)               EC50                =            6970
10  Cc1ccc(C2(N3CCC4(CC3)C(=O)NCC4c3ccccc3)CCCCC2)cc1 (single isomer, unassigned; diastereomer 2)  Sodium- and chloride-dependent glycine transporter 1 (Homo sapiens)               EC50                =             480
11  N#Cc1ccc(C2(N3CCC4(CC3)C(=O)NCC4c3ccccc3)CCCCC2)cc1 (single isomer, unassigned; diastereomer 1)  Sodium- and chloride-dependent glycine transporter 1 (Homo sapiens)               EC50                >           30000
12  O=C1NCC(c2ccccc2)C12CCN(C1(c3cccs3)CCCCC1)CC2 (racemic)  Sodium- and chloride-dependent glycine transporter 1 (Homo sapiens)               EC50                =             147
13  Cc1ccc(C2CNC(=O)C23CCN(C2(c4ccc(F)cc4)CCCCC2)CC3)cc1 (racemic)  Sodium- and chloride-dependent glycine transporter 1 (Homo sapiens)               EC50                =              73
14  COc1cccc(C2(N3CCC4(CC3)C(=O)NCC4c3ccccc3)CCCCC2)c1 (single isomer, unassigned; diastereomer 1)  Sodium- and chloride-dependent glycine transporter 1 (Homo sapiens)               EC50                =            5610
15  CC(C)=CC1(N2CCC3(CC2)C(=O)NCC3c2ccccc2)CCCCC1 (racemic)  Sodium- and chloride-dependent glycine transporter 1 (Homo sapiens)               EC50                =             979
16  N#Cc1ccc(C2(N3CCC4(CC3)C(=O)NCC4c3ccccc3)CCCCC2)cc1 (stereo in doubt)  Sodium- and chloride-dependent glycine transporter 1 (Homo sapiens)               EC50                =           16000

Origin of the recorded values: ChEMBL document CHEMBL1145308
